test: qHTS for Activators of Parkin Expression: LOPAC Validation Assay (NLuc Reporter) (AID 720572;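 also: 0% = DMSO and 100% = positive control compound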); conditions: Parkin promoter NanoLuc reporter cells, luminescence; series mostly up to 46.1 µM
Records with an inconclusive call do not appear. Active and inactive are the calls of the source. Calls follow the shape of the dose curve; as a rule, active = well fitted activation curve with a large enough effect; inconclusive = small, poorly fitted or top-dose-only effect; inactive = flat fitted curve, though single readings scatter.
readoutName: outcome

Reference set (4 entries):
NCC(O)(CS(=O)(=O)O)c1ccc(Cl)cc1 (stereo not drawn) = inactive
Nc1ncnc2c1ncn2C1CCCC1 = inactive
CCCCCCCCCCCCCCSCC(=O)O = inactive
CCc1ccc2c(-c3cccc(Cl)c3)nc(=O)n(CC)c2n1 = inactive

Please look at this compound and report its outcome: `NCCCNCCCCNCCCN`
inactive

Please look at this compound and report its outcome: NC1CCN(O)C1=O (stereo not drawn)
inactive

###

biological target: Glutathione peroxidase 1 (Homo sapiens) (UniProt P07203); experiment: Primary qHTS Assay for Inhibitors of Recombinant Selenoprotein Glutathione Peroxidase 1 (GPX1) (AID 1845191); conditions: recombinant GPX1, GR-coupled NADPH fluorescence, 15 min; series mostly up to 48.8 µM; also: nearly all actives have a fitted effect of over 65% in size
Sequence (P07203 whole entry, looked up): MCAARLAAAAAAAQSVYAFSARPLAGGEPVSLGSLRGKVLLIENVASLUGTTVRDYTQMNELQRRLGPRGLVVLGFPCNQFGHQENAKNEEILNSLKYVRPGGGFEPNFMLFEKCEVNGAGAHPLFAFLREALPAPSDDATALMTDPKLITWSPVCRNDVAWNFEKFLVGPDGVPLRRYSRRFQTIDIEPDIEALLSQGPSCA
Records with an inconclusive call do not appear. Calls of active or inactive are those of the source. Calls follow the shape of the dose curve; as a rule, active = well fitted inhibition curve with a large enough effect; inconclusive = small, poorly fitted or top-dose-only effect; inactive = flat fitted curve, though single readings scatter.
readoutName: outcome

C=CC[C@H](N)C(=O)O = inactive
COc1cc(C(O)C(=O)O)ccc1O (stereo not drawn) = inactive
CNC(=O)c1cc2c(cn1)[nH]c1ccccc12 = inactive
O=S(=O)(c1cccc2c(Cl)cccc12)N1CCCNCC1 = inactive
NC1C=CC=C(C(=O)O)C1 (stereo not drawn) = inactive
C[C@H](NC(=O)/C(C#N)=C/c1ccc(O)c(O)c1)c1ccccc1 = inactive
CCCCCCCC/C=C\CCCCCCCC(=O)NCCc1ccc(O)c(O)c1 = inactive
COC1(C2=NCCN2)COc2ccccc2O1 (stereo not drawn) = inactive
Cc1nc2n(c(=O)c1CCN1CCC(c3noc4cc(F)ccc34)CC1)CCCC2O (stereo not drawn) = inactive
O=C1OC(=O)C2C3CCC(O3)C12 (stereo not drawn) = inactive

Provide measured outcome on Glutathione peroxidase 1 (Homo sapiens) (UniProt P07203) for `Nc1nc2ccc(Cl)cc2c2nc(-c3ccco3)nn12` please.
inactive

Provide measured outcome on Glutathione peroxidase 1 (Homo sapiens) (UniProt P07203) for `NC/C=C\C(=O)O` please.
inactive

Provide measured outcome on Glutathione peroxidase 1 (Homo sapiens) (UniProt P07203) for `OC[C@H]1NC[C@@H](O)[C@@H]1O` please.
inactive

###

biological target: Glutaminase kidney isoform, mitochondrial (Homo sapiens); assay: qHTS for Inhibitors of Glutaminase (GLS): LOPAC Validation (AID 624146); conditions: glutaminase enzyme activity inhibition; series mostly up to 46.1 µM;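 also: glutamate product detected by oxidase and peroxidase coupled Amplex red fluorescence gain; nearly all actives have a fitted effect of over 60% in size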
Inconclusive results are not listed. Activity calls are given as the source filed them. Calls come from the whole dose curve; as a rule, active = well fitted inhibition curve with a large enough effect; inconclusive = small, poorly fitted or top-dose-only effect; inactive = no such curve, though single readings can be large or run the other way.
Respond with a class label; see label 1 = active, label 0 = inactive

CC(O)C(O)[C@H]1CNc2nc(N)[nH]c(=O)c2N1 (some centres undefined) = label 0
NC(N)=NC(N)=Nc1cccc(Cl)c1 = label 0
CNC(=O)c1cc2c(cn1)[nH]c1ccccc12 = label 0
COc1ccc(NC(=O)c2ccc(-c3ccc(-c4noc(C)n4)cc3C)cc2)cc1N1CCN(C)CC1 = label 0
CCCCCC(O)CCCC(=O)O (centres undefined) = label 0

Now examine the next entry.
Recorded call for `COc1ccc(-c2cc3ncc(C)n3c(Nc3ncccc3C(N)=O)n2)cc1OC` ?
label 0

###

tested on: Zika virus NS2B-NS3 protease (linked); assay: 384 well plate NINDS AMC confirmatory qHTS for Zika virus inhibitors (AID 1347163); settings: Recombinant NS2B-NS3 protease, Ac-VKTGKR-AMC fluorescence; series mostly up to 100 µM; also: nearly all actives have a fitted effect of over 50% in size
Records with an inconclusive call do not appear. Activity calls are given as the source filed them. Calls come from the whole dose curve; as a rule, active = well fitted inhibition curve with a large enough effect; inconclusive = small, poorly fitted or top-dose-only effect; inactive = no such curve, though single readings can be large or run the other way.
Respond with a class label; see yes (1) (active), no (0) (inactive)

Worked examples, 5 molecules total:
O=C1Nc2ccc(I)cc2/C1=C/c1cc(Br)c(O)c(Br)c1 = yes (1)
CCCCCCCC/C=C\CCCCCCCC(=O)NCCc1ccc(O)c(O)c1 = yes (1)
Nc1nc2ccc(Cl)cc2c2nc(-c3ccco3)nn12 = no (0)
O=C(O)c1ccccc1Nc1cccc(OCc2ccc3ccccc3n2)c1 = yes (1)
COc1cc(/C=C(\C#N)C(=O)Nc2nnc(C(F)(F)F)s2)ccc1OCc1ccc(C(F)(F)F)cc1C(F)(F)F = no (0)

Now examine the next entry.
Recorded call for `Cc1nc(N=Nc2cc(S(=O)(=O)O)c3cc([N+](=O)[O-])cc(S(=O)(=O)O)c3c2)c(COP(=O)(O)O)c(C=O)c1O` ?
yes (1)

Value source: PubChem BioAssay (NCATS)
